// provenance: patent US8435978B2

- tested on: human B1R receptor (Homo sapiens, UniProt P46663)
- Construct: host or cells: CHO K1 cells (Chinese hamster ovary), stably transfected
- Sequence (P46663 1-353): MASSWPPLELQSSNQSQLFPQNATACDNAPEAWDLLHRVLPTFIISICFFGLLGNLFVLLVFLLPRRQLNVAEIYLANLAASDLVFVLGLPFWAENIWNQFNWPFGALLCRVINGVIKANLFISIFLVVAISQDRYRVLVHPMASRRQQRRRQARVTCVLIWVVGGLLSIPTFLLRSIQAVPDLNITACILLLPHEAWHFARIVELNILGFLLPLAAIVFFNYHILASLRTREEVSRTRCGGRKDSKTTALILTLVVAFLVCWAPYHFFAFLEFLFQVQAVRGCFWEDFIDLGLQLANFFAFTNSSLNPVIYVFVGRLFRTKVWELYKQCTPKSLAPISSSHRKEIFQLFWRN
- run description: Functional study on the bradykinin receptor 1 (B1R), FLIPR Ca2+ assay, hB1R cells
- Format: cell-based
- reported conditions: CHO-K1, test substance 10 μM, agonist Lys-Des-Arg9-bradykinin 0.5 nM, % inhibition compared with the maximum achievable inhibition, read-out: B1R Antagonism, human [10 μM] % Inhibition
Where a name gives a salt, the structure may show the parent alone.
property measured: inhibition at 10 µM (%)
Lab book: enter the figure in %, no units written.

What does the data say about its inhibition at 10 µM? Entry: O=C(COCC1Cc2ccccc2N1S(=O)(=O)c1ccc(Cl)c(Cl)c1)NCc1ccc(CN2CCCC2)cc1 (stereo not shown)
44.9

// query: COc1ccc(S(=O)(=O)N2Cc3ccccc3C[C@H]2COCC(=O)N2CCN(CC3CCN(C)CC3)CC2)cc1 [Example 189, dihydrochloride]
70.7

Another molecule to look at: CN1CCC(N2CCN(C(=O)COCC3CCCCN3S(=O)(=O)c3ccccc3Cl)CC2)CC1 (stereo not shown) [Example 139, dihydrochloride]
99.9

Query Cc1cc(S(=O)(=O)N2CCCCC2COCC(=O)N2CCN(Cc3ccccc3)CC2)c(C)cc1Cl (stereo not shown) next
38.5
